system: K4 kissing-loop RNA reporter; experiment: apparent KD of K4 kissing-loop reporter; higher = weaker reporter binding; conditions: Eterna round: R107; input ligand: FMN 200 uM;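 further: bound reporter read as fluorescence of individual clusters on recovered sequencing chips by microscopy, with normalized cluster intensities fitted with a binding model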
Entries are grouped by apparent KD of K4 kissing-loop reporter into these classes: A: < 0.1 µM; B: ≥ 0.1 µM and < 0.3 µM; C: ≥ 0.3 µM

Reference set, count: 5
>>> label("UCGAUAGCCAGCGAUACCAGCCCAGUGAUGUUGGGCACAUGGUUGCGGGAAAUCCUAUUGGGCCCUUGGCAGCGCUUGCAUGGGU [Anbixeza]")
"B"
>>> label("AGCGGCCAGUCGGCCGCCACUCCAGGCAGUGAUGUUGCGAAGUUUCUACUAGAGUGAUGUUCUAAGAGGACCGGGACUGACGUAA [Exclusion Tryptophan B Gf 9]")
"B"
>>> label("GGUAUCCAGUACCAUUGCGUUAAAACAGAAGGAGCGAGAAUAGACUCAGGUAGGUCGCUGUUUAUAGUCGAGUGAUGUUCGAAUC [Same State Arginine A GF 14]")
"B"
>>> label("AAAUGUUUGUAUUUGAACAAUUUCCUUAGAGAGGAUAUUGGUAAUACAAGAAGGCUCUGAUGGGAGUGAUGUUCCCAUAACGCGG [Exclusion FMN A GF14]")
"B"
>>> label("UGACAUUGCUCAGAUACCAGACCUGAGGAUCACCCGGGUGCCAAAACGUACUAAAUAAAGGUCCCUUGGCAGCUGAGCAAUGUCU [TheoBX 13]")
"A"

input: GET /class?item= UGAACUGUCUGCGAUACCAGCUAAGGAGUGAUGUUCCGGCUCGACGAAACGUCGAGCCAUAGCCCUUGGCAGCGCAGACAGUUCA [#28 K4 Theophylline B Same State]
output: C

input: Which apparent KD of K4 kissing-loop reporter band matches "AAAAUAAACCAGUGAUGUUGGUGUCCAGAUACCAGCGACGAAAGUCGCCCUUGGCAGCUGUGGACGUACAAAAUAAGUACGUCCU" ?
output: C

input: Form field 'band' for CCUAUCUCAUACGAUACCAGUCUACGAUAUUUUAUCGUUGCCAUCACCGAGUGAUGUUCGGACCCUUGGCAGCGUAUGGGAUAGG [Ex Theophylline B K4 5]
output: C

input: State the class of the sequence shown: AUGGUUGUCGUAGGAUAUGUAGGAUAUUCUAAAAUAUGAAGUGAUGUUUCUAUAAUAAGAAGAAGGACAGAAGGACGAUAACCAC [FmnBS 1 - SaraBot transfer #DoubleAptamer]
output: A

input: Which category fits this record: CUGAGCCUGACGAAAGUCAGGCUCUGCGAGCGAGGACCGGUACGGCCGCCACUCGGUGCAGUGAUGUUGCAUGGCCGCAAGGCCG [#2 Exclusion - Tryptophan A Attempt #18 (HarryS)]
output: B

input: State the class of the sequence shown: AUAAUAAAGACGGCCGCCACUGAGAGUAGUGAUGUUACUCUUUUCCUUUAGAAAUAAUAUUUUAUCAGGACCGGGUUUUUUGAAU [JR_Nu_ExcTryptoB_Sub026]
output: A

input: Would you mind sorting UGUAUGUGAUGUGAUACCAGUGAAGAGCCAGUGAUGUUGGUAGAACUGGUAUAUAAAUAACACCCUUGGCAGCACAAUCACGUAC [whbob_Ex_Theo_B_sa99] into the appropriate category?
output: B
